experiment: Pharmacokinetic evaluation in CD-1 mice (intravenous and oral); assay type: in vivo; conditions: male, mouse, plasma, intravenous 0.5 mg/kg, oral 2.0 mg/kg (route of Cmax not stated), read-out: Peak concentration Cmax
Where a name gives a salt, the structure may show the parent alone.
QUANTITY_MEASURED: Cmax (ng/mL)

CC(C)Oc1ccc(-c2nc(-c3cccc4c3CCC43CCN(C(=O)CO)C3)no2)cc1C#N (stereo not drawn) [Compound 1]    615

I. CC(C)Oc1ccc(-c2nc(-c3cccc4c3CCC43CCN(CC4(C(=O)O)CC4)C3)no2)cc1C#N (stereo not drawn) [Hydrochloride of compound 22]
II. CC(C)Oc1ncc(-c2nc(-c3cccc4c3CCC43CCN(C(=O)CO)C3)no2)cc1C#N (stereo not drawn) [Compound 8]
Lookup: Which shows the larger Cmax value: I or II ? Answer = label.
Found: II
(II: 2280 ng/mL, I: 869 ng/mL)

====

target: S1PR1 (Homo sapiens); construct: expressed in transfected cells; assay: In vitro S1PR1 agonistic activity, PathHunter cell line, chemiluminescent detection; type: cell-based; settings: 90-180 min at 37° C.
pEC50: −log10 of the molar value. Structures can show the parent of a compound that is named as a salt.
QUANTITY_MEASURED: pEC50

COCC(=O)N1CCC2(CCc3c(-c4noc(-c5ccc(OC(C)C)c(C#N)c5)n4)cccc32)C1 (stereo not shown) [Compound 3]    9.89

A. CC(C)Oc1ccc(-c2ncc(-c3cccc4c3CCC43CCN(C(=O)CO)C3)s2)cc1C#N (stereo not shown) [Compound 14]
B. CC(C)Oc1ncc(-c2nc(-c3cccc4c3CCC43CCN(CC4(C(=O)O)CC4)C3)no2)cc1Cl (stereo not shown) [Hydrochloride of compound 39]
Lookup: Which shows the larger pEC50 value: A or B ? Answer = label.
Found: A
(A: 8.80, B: 8.46)

A. N#Cc1cc(-c2nc(-c3cccc4c3CCC43CCN(C(=O)CO)C3)no2)ccc1OC1CCCC1 (stereo not shown) [Compound 9]
B. CC(C)Oc1ccc(-c2ncc(-c3cccc4c3CCC43CCN(C(=O)CO)C3)o2)cc1C#N (stereo not shown) [Compound 21]
C. CC(C)Oc1ccc(-c2nc(-c3cccc4c3CCC43CCN(C(=O)CO)C3)no2)cc1Br (stereo not shown) [Compound 10]
D. CC(C)Oc1ccc(-c2ncc(-c3cccc4c3CCC43CCN(CC4(C(=O)O)CC4)C3)o2)cc1C#N (stereo not shown) [Hydrochloride of compound 27]
Lookup: Please list these compounds in decreasing order of pEC50. // list labels; follow requested order
Found: C, A, D, B

====

Target: S1PR1 (Homo sapiens, UniProt P21453)
Construct: expressed in transfected cells
Sequence (P21453 whole entry): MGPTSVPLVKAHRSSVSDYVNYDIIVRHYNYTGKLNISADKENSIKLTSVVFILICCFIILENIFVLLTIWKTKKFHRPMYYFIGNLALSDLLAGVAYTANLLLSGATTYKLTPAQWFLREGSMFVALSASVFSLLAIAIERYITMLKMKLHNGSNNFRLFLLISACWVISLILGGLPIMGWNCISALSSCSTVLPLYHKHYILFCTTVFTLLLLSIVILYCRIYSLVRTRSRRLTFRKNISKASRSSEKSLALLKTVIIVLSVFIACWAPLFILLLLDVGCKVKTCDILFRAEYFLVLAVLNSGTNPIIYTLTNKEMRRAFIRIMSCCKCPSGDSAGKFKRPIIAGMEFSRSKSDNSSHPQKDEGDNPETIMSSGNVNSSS
Experiment: In vitro S1PR1 agonistic activity, U2OS-EDG1 cells, LiveBLAzer-FRET B/G (CCF4-AM)
Assay type: cell-based
Settings: % Effect, read-out: Emax
Method: Test Embodiment 2: In Vitro Evaluation of the Agonistic Activity of the Compounds of the Present Disclosure on S1PR1 Experimental objective: to detect the agonistic activity of compounds on S1PR1 I. Cell Treatment • 1. […] III. […] 8 μL of 6×Substrate Mixture was added to each well of the cell plate, centrifuged at 1000 rpm for 15 seconds, attached with a membrane, incubated at 23° C. for 2 hours, and detected by Envision […]. […]
Where a name gives a salt, the structure may show the parent alone.
QUANTITY_MEASURED: Emax (%)

N#Cc1cc(-c2nc(-c3cccc4c3CCC43CCN(CC4(C(=O)O)CC4)C3)no2)ccc1OC(F)F (stereo not shown) [Hydrochloride of compound 34]    94.9
N#Cc1cc(-c2nc(-c3cccc4c3CCC43CCN(CC4(C(=O)O)CC4)C3)no2)ccc1OC1CCCC1 (stereo not shown) [Hydrochloride of compound 31]    101
CC(C)Oc1ccc(-c2nc(-c3cccc4c3CCC43CCN(CC4(C(=O)O)CC4)C3)no2)cc1C#N (single isomer, unassigned) [Compound 22A]    84.2
CC(C)Oc1ccc(-c2nc(-c3cccc4c3CCC43CCN(CC4(C(=O)O)CC4)C3)no2)cc1Br (stereo not shown) [Hydrochloride of compound 30]    103
